- Target of assay: HIV-1 Env of TRO.11 (HIV-1)
- Method: cell-based or functional assay
Measured property: neutralization IC50

Examples with their reported neutralization IC50 follow.
CAP256-VRC26.08 (antibody, V domains shown) VH: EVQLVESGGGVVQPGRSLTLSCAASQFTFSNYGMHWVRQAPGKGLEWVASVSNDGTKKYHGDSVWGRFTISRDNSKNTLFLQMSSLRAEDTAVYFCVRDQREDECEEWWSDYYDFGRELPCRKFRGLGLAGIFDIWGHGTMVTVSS VL: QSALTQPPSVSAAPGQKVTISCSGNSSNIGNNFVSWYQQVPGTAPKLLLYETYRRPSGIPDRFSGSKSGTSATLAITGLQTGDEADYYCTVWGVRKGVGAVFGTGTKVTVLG : > 50 mg/L
CAP256-VRC26.11 (antibody, V domains shown) VH: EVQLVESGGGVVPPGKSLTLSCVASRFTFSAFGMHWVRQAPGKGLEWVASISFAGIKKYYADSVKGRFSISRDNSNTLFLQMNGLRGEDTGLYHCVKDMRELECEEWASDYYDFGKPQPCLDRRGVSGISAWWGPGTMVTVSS VL: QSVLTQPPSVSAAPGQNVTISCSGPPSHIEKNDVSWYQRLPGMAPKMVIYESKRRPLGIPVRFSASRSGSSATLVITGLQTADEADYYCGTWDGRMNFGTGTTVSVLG : > 50 mg/L

Per the record, CAP256-VRC26.01 (antibody, V domains shown) VH: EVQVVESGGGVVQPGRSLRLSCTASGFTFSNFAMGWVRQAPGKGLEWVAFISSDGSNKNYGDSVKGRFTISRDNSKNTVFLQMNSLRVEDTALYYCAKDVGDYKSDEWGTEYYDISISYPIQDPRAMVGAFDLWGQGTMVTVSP VL: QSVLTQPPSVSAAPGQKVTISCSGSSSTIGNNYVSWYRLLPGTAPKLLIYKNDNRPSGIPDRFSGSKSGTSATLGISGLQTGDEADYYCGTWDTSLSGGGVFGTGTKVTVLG has neutralization IC50 of > 50 mg/L
